system: CAKI-1 renal; test: NCI-60 one-dose screen, 48 h (100 = growth as untreated, 0 = no growth, -100 = all killed); details: 10 µM unless noted
The panel holds about 83,000 compounds, 20% with a hit somewhere; the sample as a whole holds those more often. The source made the active and inactive calls. How the source made its calls: active means growth percent below 10; inactive means the rest.
Readout name: growth

Study these solved cases before continuing.
Compound | growth
C#Cc1cccc(NC(=O)Nc2ccc(NC(=O)CCl)cc2)c1 | 9.01% [8.25 µM] (active)
CCN(CC)CCSCCCNc1c(C)cnc2cc(Cl)ccc12 | 90.5% (inactive)
CCCCCCCCCCCCCCCC(=O)OC[C@@]1(O)C[C@@]23CC[C@@H]4C(C)(C)CCC[C@@]4(C)[C@@H]2CC[C@H]1C3 | 74.2% (inactive)
COc1ccc(/C=C/C(=O)c2ccc(Nc3ncnc4ccccc34)cc2)cc1OC | 75.6% (inactive)
Cc1ccc(-c2c(Br)c(OC(=O)CO[C@@H]3C[C@H](C)CC[C@H]3C(C)C)c(-c3ccc(C)cc3C)c(Br)c2OC(=O)CO[C@H]2C[C@@H](C)CC[C@@H]2C(C)C)c(C)c1 | 97% (inactive)

Fill blank: measured growth of the compound CCNC(=O)c1[nH]cc(-c2ccc(OC)cc2)c1-c1cc(OC)c(OC)c(OC)c1 is ____.
29.4% (inactive)

Fill blank: measured growth of the compound CC(=O)NCCCS(=O)(=O)O is ____.
88.5% (inactive)

Fill blank: measured growth of the compound CCCCCCNC(=O)Oc1ccc(/C(=C(/CC)Cc2ccccc2)c2ccc(OCCN(CC)CC)cc2)cc1 is ____.
91% (inactive)

====

system: NCI-H460 lung; assay: NCI-60 one-dose screen, 48 h (100 = growth as untreated, 0 = no growth, -100 = all killed); details: 10 µM unless noted
About 83,000 compounds went through this panel and 20% of them were active in at least one assay; those are over-represented in the sample as a whole.
Readout name: growth (%)
Report the value in % with no unit label.

Molecule | Result unit | growth
O=C(Nc1ccc2cc3ccc(NC(=O)N4CCCCCC4)cc3nc2c1)N1CCCCCC1 | % | -55.6
COc1ccc(C2CC(c3cccc(Nc4ccncc4)c3)=NN2c2cc(Cl)cc(Cl)c2)cc1 (stereo not drawn) | % | -77.6
CC(C)(C)OC(=O)N1C/C(=C\c2ccoc2)C(=O)/C(=C/c2ccoc2)C1 | % | 107
CNC(=O)NCC1OC(n2cnc3c(NC(=O)Nc4ccccc4)ncnc32)C(O[Si](C)(C)C(C)(C)C)C1O[Si](C)(C)C(C)(C)C (stereo not drawn) | % | -6.74

Fill blank: measured growth of the molecule NC(=O)CN1CCN(c2ccccc2Cl)CC1 is ____.
111

Fill blank: measured growth of the molecule C#CCNC(=O)[C@H](Cc1ccccc1)NC(=O)[C@]12CC[C@@H](C(=C)C)[C@@H]1[C@H]1CC[C@@H]3[C@@]4(C)Cc5c([nH]c6ccccc56)C(C)(C)[C@@H]4CC[C@@]3(C)[C@]1(C)CC2 is ____.
104

Fill blank: measured growth of the molecule Clc1ccc2c(c1)c(-c1ccccc1)nc1nncn12 is ____.
117

Fill blank: measured growth of the molecule CN1CCN(C(=O)[C@]2(C)CC[C@]3(C)CC[C@]4(C)C(=CC(=O)[C@@H]5[C@@]6(C)CCC(=O)NC(C)(C)[C@@H]6CC[C@]54C)[C@@H]3C2)CC1 is ____.
102
